- Tested on: MDA-N
- protocol: NCI tumour cell line growth inhibition, 48 h
endpoint: TGI

>>> valuemeasured("Cc1ccc(S(=O)(=O)NC(=O)Nc2ccc(S(N)(=O)=O)cc2S(N)(=O)=O)cc1")
"> 100 µM"
>>> valuemeasured("COc1cccc2[nH]c(-c3ccccn3)nc12")
"> 100 µM"
>>> valuemeasured("N#CCCN(CCN(C(=O)Nc1ccccc1)c1ccccc1)C(=O)Nc1ccccc1")
"> 100 µM"
>>> valuemeasured("COc1ccc2c(c1)CCC1=CC3(CCC12C)SCCS3 (centres undefined)")
"6.36 µM"

* * *

As shown below, each of these compounds has a reported TGI value.
- System: OVCAR-8 ovarian
- protocol: NCI tumour cell line growth inhibition, 48 h
endpoint: TGI

>>> valuemeasured("COC(=O)c1ccc(Cc2ccc(C(=O)OC)o2)o1")
"> 378 µM"
>>> valuemeasured("CC(C)C(/C=C/c1ccc(Br)cc1)=N\\NC(N)=O")
"> 100 µM"
>>> valuemeasured("NC(=O)c1[nH]cnc1/N=N/SCC(N)C(=O)O (stereo unspecified)")
"> 100 µM"
>>> valuemeasured("CC(C)NCCC(O)c1cc2ccccc2o1 (stereo unspecified)")
"> 100 µM"
>>> valuemeasured("O=C(CCN1CCOCC1)Nc1ccc2sc3ccccc3c(=O)c2n1")
"> 100 µM"
>>> valuemeasured("Nc1nnc(Cn2c(-c3ccccc3)nc3ccc(Br)cc3c2=O)s1")
"41 µM"
>>> valuemeasured("O=C([O-])c1ccc(C(=O)[O-])cc1.O=C([O-])c1ccc(C(=O)[O-])cc1.[Mo+2].[Mo+2]")
"> 100 µM"
>>> valuemeasured("CC1OC(OC2C(O)COC(OC3C(C)OC(OC4C(OC(=O)[C@]56CCC(C)(C)C[C@@H]5C5=CCC7[C@@]8(C)C[C@H](O)[C@H](OC9OC(CO)C(O)C(OC%10OC(CO)C(O)C(O)C%10O)C9O)[C@@](C)(CO)[C@@H]8CC[C@@]7(C)[C@]5(C)CC6)OCC(O)C4O)C(O)C3O)C2O)C(O)C(O)C1O (stereo partly specified)")
"32.8 µM"
>>> valuemeasured("NCCN1CC2CCC(CC2)C1")
"> 10 µM"
>>> valuemeasured("CC(=O)OC1CC[C@]2(C)C3CC[C@@]4(C)C(CCC4[C@H](C)CCCC(C)C)[C@@H]3CCC2(Br)C1 (stereo partly specified)")
"26.5 µM"
>>> valuemeasured("Cc1cn(C2CC(N)C(C(=O)O)O2)c(=O)[nH]c1=O (stereo unspecified)")
"> 100 µM"
>>> valuemeasured("COc1cc2c(cc1OCc1ccccc1)NC(=S)[C@@H]1CCCN1C2=S")
"> 100 µM"
>>> valuemeasured("CCN1C(=O)N(c2ccccc2)C2NN=c3s/c(=C4\\C(=O)N(C(C)C)c5ccccc54)c(=O)n3C21 (stereo unspecified)")
"> 100 µM"
>>> valuemeasured("CC#CCCN(CC#N)Cc1ccccc1")
"> 100 µM"
>>> valuemeasured("COc1cc(/C=C/c2cc(/C=C/c3ccc(O)c(OC)c3)oc(=O)c2)ccc1O")
"> 100 µM"
>>> valuemeasured("O=C(c1ccc(Br)cc1)n1c2ccc(Br)cc2c2nc3ccccc3nc21")
"> 100 µM"
>>> valuemeasured("COc1ccc(CNc2nc3c(NC(C)=O)cc(C(F)(F)F)cc3nc2-c2ccccc2)cc1OC")
"> 100 µM"
>>> valuemeasured("CCOC(=O)c1cc2c(n1Cc1ccccc1)-c1oncc1CC2")
"66.9 µM"
>>> valuemeasured("CC(C)(C)C(=O)O[C@@H]1COC2C(O)COC21 (stereo partly specified)")
"> 100 µM"
>>> valuemeasured("C#CCOc1cccc(Nc2ncnc3ccc(NC(=O)CCl)cc23)c1")
"> 65 µM"
>>> valuemeasured("NC(=Nc1ccc(O)cc1)S(=O)O")
"> 100 µM"

* * *

Entries and their measured TGI follow.
- System: SF-539 CNS
- protocol: NCI tumour cell line growth inhibition, 48 h
endpoint: TGI

>>> valuemeasured("CCC(C(=O)[O-])C(=O)[O-].CCC(C(=O)[O-])C(=O)[O-].N.N.NCCCCCCN.[Pt+4].[Pt+4]")
"21.7 µM"
>>> valuemeasured("CCOC(=O)NC(=O)c1cn(CCN2CCN(C(=O)CCCCCCCCCCNc3ncnc4nc[nH]c34)CC2)c(=O)[nH]c1=O")
"> 100 µM"
>>> valuemeasured("NC(=O)/C=C/NC(=O)/C=N\\O")
"> 100 µM"
>>> valuemeasured("Cc1ccc(/C=C/C(=O)c2cc(CN(C)C)c(O)c(CN(C)C)c2)cc1")
"34.9 µM"
>>> valuemeasured("Nc1nc(N)c2nc(CNc3ccc(C(=O)NC(CCCNC(=O)c4ccccc4C(=O)O)C(=O)O)cc3)cnc2n1 (configuration not stated)")
"> 100 µM"
>>> valuemeasured("CC(=O)[O-].O=C([CH-]C(=O)c1ccccc1)c1ccccc1.O=C([CH-]C(=O)c1ccccc1)c1ccccc1.[Y+3]")
"37 µM"
>>> valuemeasured("CS(=O)(=O)CCNCc1ccc(-c2ccc3ncnc(Nc4ccc(OCc5ccccc5)c(Cl)c4)c3c2)o1")
"9.2 µM"
>>> valuemeasured("O=C1OCc2cccc3c2-c2c1cccc2C(=O)OC3")
"> 100 µM"
>>> valuemeasured("N#CCCN(CCN(C(=O)Nc1ccccc1)c1ccccc1)C(=O)Nc1ccccc1")
"> 100 µM"
>>> valuemeasured("OC(c1ccccn1)C1CNc2ccccc21 (configuration not stated)")
"> 100 µM"
>>> valuemeasured("O=C(CC(=O)C1CCOC1=O)C(=O)Nc1ccc(Cl)cc1Cl (configuration not stated)")
"> 100 µM"
>>> valuemeasured("CCOC(=O)c1ccc(-n2c(SCC)nc3sc(C)c(C)c3c2=O)cc1")
"> 100 µM"

* * *

- Test system: SN12C renal
- protocol: NCI tumour cell line growth inhibition, 48 h
endpoint: TGI (µM)

>>> valuemeasured("COc1cc2nc3cc([N+](=O)[O-])ccc3c(NCCCNCC(C)(C)O)c2cc1OC")
1.11
>>> valuemeasured("COc1cnc2c(c1)C(=O)c1c-2n(CCCN2CCCC2)c(=O)c2cc(F)ccc12")
10

* * *

- Tested on: SK-MEL-28 melanoma
- protocol: NCI tumour cell line growth inhibition, 48 h
GI50 listing for selected compounds.
endpoint: GI50

>>> valuemeasured("Cc1nc(N)sc1C(=O)Nc1cc(C(=O)NCCCN(C)C)n(C)c1")
"65.4 µM"
>>> valuemeasured("C/C(Cc1ccc(Cl)cc1)=C(/c1ccc(Cl)cc1)c1ccc(OCCN(C)C)cc1")
"4.85 µM"
>>> valuemeasured("Cc1nc2n(c(=O)c1CCN1CCC(c3noc4cc(F)ccc34)CC1)CCCC2")
"> 50 µM"
>>> valuemeasured("COc1ccc(Cn2cc3c(c2-c2cc(OC)c(OC)c(OC)c2)CCc2cnoc2-3)cc1[N+](=O)[O-]")
"3.39 µM"
>>> valuemeasured("O=[N+]([O-])c1ccc2ncccc2c1Cl")
"6.29 µM"
>>> valuemeasured("CNCCCNc1nc2ccccc2c2c(=O)c3cc(Cl)ccc3sc12")
"1.82 µM"
>>> valuemeasured("O=C(OCc1ccc2c(Cl)cc(Cl)c(O)c2n1)c1cc2ccccc2[nH]1")
"0.532 µM"
>>> valuemeasured("CN(CCCl)c1ccc(/C=C/C2=[N+](C)c3ccccc3C2(C)C)cc1")
"0.685 µM"

* * *

Listing of recorded TGI by entry.
- Test system: MALME-3M melanoma
- protocol: NCI tumour cell line growth inhibition, 48 h
endpoint: TGI (µM)

>>> valuemeasured("O=C(Nc1ccccc1F)c1cc2ccc(O)cc2oc1=Nc1cccc(C(F)(F)F)c1")
34.9
>>> valuemeasured("O=C1C(Cl)=C(Nc2cccc(O)c2)C(=O)N1c1ccccc1Cl")
69.1
>>> valuemeasured("COc1cc2c(cc1O)[C@@H]1Cc3c(cc(OC)c(OC)c3Oc3cc4c(cc3OC)CCN(C)[C@@H]4Cc3ccc(O)cc3)[C@H](C2)N1C")
32.2
>>> valuemeasured("CCCCS(=O)(=O)Nc1ccc(Nc2c3ccccc3nc3ccccc23)c(OC)c1")
7.99
>>> valuemeasured("CCC(C(=O)[O-])C(=O)[O-].CCC(C(=O)[O-])C(=O)[O-].N.N.NCCCCCCN.[Pt+4].[Pt+4]")
1.9
>>> valuemeasured("CN1CCC23c4c5ccc(O)c4OC2c2[nH]c4ccccc4c2CC3(O)C1C5 (stereo not given)")
36.8
>>> valuemeasured("CCC[CH2][Sn]([CH2]CCC)([O]C(=O)C1CCC(=O)N1)[O]C(=O)C1CCC(=O)N1 (stereo not given)")
0.243
>>> valuemeasured("O=[N+]([O-])c1ccc2ncccc2c1Cl")
54.4

* * *

- Test system: COLO 205 colon
- protocol: NCI tumour cell line growth inhibition, 48 h
Parameter: TGI. Scope: all listed entries.
endpoint: TGI

>>> valuemeasured("CN1CCC23c4c5ccc(O)c4OC2c2[nH]c4ccccc4c2CC3(O)C1C5 (stereo not given)")
"33.1 µM"
>>> valuemeasured("COc1ccc(-c2cc(=O)c3c(O)cc(C)cc3o2)cc1OC")
"> 100 µM"
>>> valuemeasured("CCCCC(=O)Oc1ccc2c(C)cc(=O)oc2c1")
"> 100 µM"
>>> valuemeasured("Cc1ccc2[nH]c3c(ncc4[nH]c5ccccc5c43)c2c1")
"34.3 µM"
>>> valuemeasured("Nc1nnc(Cn2c(-c3ccccc3)nc3ccc(Br)cc3c2=O)s1")
"> 100 µM"
>>> valuemeasured("O=C(O)CCCOc1cc(-c2ccccc2F)nc2cc3c(cc12)OCO3")
"27.4 µM"
>>> valuemeasured("Clc1nc2n(c1/C=C/c1cccs1)CCS2")
"> 100 µM"
>>> valuemeasured("COCCOCC(=O)N(CCn1ccc(NC(c2ccccc2)(c2ccccc2)c2ccccc2)nc1=O)CCn1cnc2nc(N)[nH]c(=O)c21")
"> 100 µM"
>>> valuemeasured("N[C@@H]1CCCN(c2c(/C=C3\\SC(=O)NC3=O)cccc2-c2ccccc2)C1")
"25.5 µM"
>>> valuemeasured("[N-]=[N+]=NC(CBr)c1cn([C@H]2C[C@H](O)[C@@H](CO)O2)c(=O)[nH]c1=O (stereo not given in full)")
"> 100 µM"
>>> valuemeasured("N#CC(Cc1ccccc1Br)N(CCC1=CCCCC1)C(c1ccccc1)c1ccccc1 (stereo not given)")
"> 100 µM"
>>> valuemeasured("COc1ccccc1S(=O)(=O)Nc1ccc2c(c1)CN(C)C(=O)N2")
"> 100 µM"
>>> valuemeasured("CC(=O)[O][Hg][c]1ccccc1")
"1.67 µM"
>>> valuemeasured("CCS(=O)(=O)CCn1cnc2c1c(=O)n(C)c(=O)n2C")
"> 100 µM"
>>> valuemeasured("C=CC[C@@H]1C(=O)[C@@]2(O[Si](C(C)C)(C(C)C)C(C)C)CC[C@@H]1C[C@H]2NC(=O)OCC(Cl)(Cl)Cl")
"> 100 µM"
>>> valuemeasured("N#Cc1ccc(C(c2ccc(C#N)cc2)n2cncn2)cc1")
"> 5000 µM"
>>> valuemeasured("O=C1C(Cl)=C(Nc2cccc(O)c2)C(=O)N1c1ccccc1Cl")
"> 100 µM"
>>> valuemeasured("CNC1C(O)C(OC2C(N)CC(N)C(OC3OC(C(C)O)C(O)C(O)C3N)C2O)OCC1(C)O (stereo not given)")
"> 100 µM"
>>> valuemeasured("COc1ccc(C(=O)COc2cccc(/C=C3\\CSc4ccc(C)cc4C3=O)c2)cc1")
"> 100 µM"
>>> valuemeasured("O=C(CC(=O)C1CCOC1=O)C(=O)Nc1ccc(Cl)cc1Cl (stereo not given)")
"> 100 µM"
>>> valuemeasured("COc1cccc(CC2Cc3ccccc3CC(=O)N2)c1 (stereo not given)")
"> 100 µM"
>>> valuemeasured("NC(=O)/C=C/NC(=O)/C=N\\O")
"> 100 µM"
>>> valuemeasured("COc1cccc2[nH]c(-c3ccccn3)nc12")
"> 100 µM"
>>> valuemeasured("CSc1nc2[nH]c(=O)c(C)nc2c(=O)[nH]1")
"> 100 µM"
>>> valuemeasured("COc1ccc(Cc2nccc3cc(OC)c(OC)cc23)cc1OC")
"> 100 µM"
>>> valuemeasured("COc1cc2nc3cc([N+](=O)[O-])ccc3c(NCCCNCC(C)(C)O)c2cc1OC")
"0.442 µM"
>>> valuemeasured("c1ccc(C[n+]2cccc(-c3cc4ccccc4[nH]3)c2)cc1")
"28.8 µM"
>>> valuemeasured("Cc1ccc(/C=C/C(=O)c2cc(CN(C)C)c(O)c(CN(C)C)c2)cc1")
"22.5 µM"
>>> valuemeasured("Cc1cc(C)nc(SC2=C(Nc3cccc(Cl)c3C)C(=O)N(Cc3ccccc3)C2=O)n1")
"> 160 µM"
>>> valuemeasured("COc1ccc([C@@]23OC[C@@H]4[C@@H](OC[C@@H]42)c2cc(OC)c(OC)cc23)cc1OC")
"> 100 µM"
>>> valuemeasured("CC(C)C(/C=C/c1ccc(Br)cc1)=N\\NC(N)=O")
"> 100 µM"
>>> valuemeasured("O=C(c1ccccc1)c1sc2c(=O)c(C(=O)c3ccccc3)c(C(=O)c3ccccc3)sc2c(=O)c1C(=O)c1ccccc1")
"> 100 µM"
>>> valuemeasured("Cc1ccc(S(=O)(=O)Oc2nc3ccccc3nc2N(S(=O)(=O)c2ccc(C)cc2)S(=O)(=O)c2ccc(C)cc2)cc1")
"> 100 µM"
>>> valuemeasured("O=C(O)C1(Cc2cccc(Nc3nccs3)n2)CCC(Oc2cccc(Cl)c2F)CC1 (stereo not given)")
"19.3 µM"
>>> valuemeasured("COc1ccc(CNc2nc3c(NC(C)=O)cc(C(F)(F)F)cc3nc2-c2ccccc2)cc1OC")
"> 100 µM"
>>> valuemeasured("N#CCCN(CCN(C(=O)Nc1ccccc1)c1ccccc1)C(=O)Nc1ccccc1")
"> 100 µM"
>>> valuemeasured("Cc1ccc(S(=O)(=O)Cc2nc(-c3ccc(C(=O)NCc4cccnc4)cc3)oc2C)cc1")
"> 100 µM"
>>> valuemeasured("CCc1nc(Cl)nc(Cl)c1Cl")
"14.6 µM"
>>> valuemeasured("CCC1CCc2nc3sc(C(=O)Nc4ccccc4C)c(N)c3cc2C1 (stereo not given)")
"> 100 µM"
>>> valuemeasured("Cc1nc(N)sc1C(=O)Nc1cc(C(=O)NCCCN(C)C)n(C)c1")
"> 100 µM"

These measurements were taken from PubChem BioAssay (NCI).
